Test system: A549
assay.protocol: Cytotoxicity against human A549 cells after 48 hrs by MTT assay
Format: functional, cell-based
condition.label: A549, 48 h
# note: boundary value 40 µM maps to F; IC50 below it maps to T

input: Find out if reported IC50 for "Cc1ccc2c(=O)c3cccc(CC(=O)N/N=C/c4ccc(O)cc4)c3oc2c1C" is less than 40 µM
output: T

input: Does the reported IC50 of "Cc1ccc2c(=O)c3cccc(CC(=O)N/N=C/c4cc(Cl)ccc4O)c3oc2c1C" stay below 40 µM?
output: T

input: Input "CCCNC(=O)Cc1cccc2c(=O)c3ccc(C)c(C)c3oc12" ; condition: IC50 strictly below 40 µM. Does it hold?
output: T

input: Is it true that IC50 reported for "Cc1ccc2c(=O)c3cccc(CC(=O)Nc4ccc(F)c(Cl)c4)c3oc2c1C" is less than 40 µM?
output: T

input: Identify whether the compound "Cc1ccc2c(=O)c3cccc(CC(=O)N/N=C/c4ccccc4O)c3oc2c1C" records IC50 below 40 µM.
output: T

input: Does the reported IC50 of the following compound sit strictly below 40 µM? "COc1ccc(/C=N/NC(=O)Cc2cccc3c(=O)c4ccc(C)c(C)c4oc23)cc1"
output: F

input: Find out if reported IC50 for Cc1ccc2c(=O)c3cccc(CC(=O)O)c3oc2c1C [VADIMEZAN] is less than 40 µM
output: F

input: Please determine if "Cc1ccc2c(=O)c3cccc(CC(=O)N/N=C/c4ccc5c(c4)OCO5)c3oc2c1C" is below 40 µM in terms of IC50.
output: F

input: For this compound, is IC50 lower than 40 µM? "COc1cccc(/C=N/NC(=O)Cc2cccc3c(=O)c4ccc(C)c(C)c4oc23)c1"
output: F

input: Is 40 µM strictly greater than the compound's reported IC50? compound: "Cc1ccc2c(=O)c3cccc(CC(=O)Nc4ccc(Cl)c(Cl)c4)c3oc2c1C"
output: F

Next:
input: State whether 40 µM exceeds IC50 recorded for "Cc1ccc2c(=O)c3cccc(CC(=O)Nc4ccc(Cl)cn4)c3oc2c1C" .
output: F

input: Hello, I'm reviewing records and need to know if IC50 of "CCOC(=O)CCNC(=O)Cc1cccc2c(=O)c3ccc(C)c(C)c3oc12" is below 40 µM. Could you check?
output: T

input: Below 40 µM on IC50? Entry "COc1ccc(/C=N/NC(=O)Cc2cccc3c(=O)c4ccc(C)c(C)c4oc23)cc1O"
output: F
